Hello, the source for this data is ChEMBL document CHEMBL1177854, in case you need it.

tested on: GBM; assay: Cytotoxicity against human GBM cells after 24 hrs by neutral red uptake assay; assay type: functional, cell-based
result_type: IC50

Exercise: I'd like to know its IC50. The compound in question is "C[C@H](CCC(=O)NN1CCN(C)CC1)[C@H]1CC[C@H]2[C@@H]3[C@@H](O)C[C@@H]4C[C@H](O)CC[C@]4(C)[C@H]3CC[C@]12C"
Key: > 50 µM

Exercise: I'd like to know its IC50. The compound in question is "C[C@H](CCC(=O)NN1CCN(C)CC1)[C@H]1CC[C@H]2[C@@H]3[C@H](O)C[C@@H]4C[C@H](O)CC[C@]4(C)[C@H]3C[C@H](O)[C@]12C"
Key: > 50 µM

Exercise: I'd like to know its IC50. The compound in question is C[C@H](CCC(=O)O)[C@H]1CC[C@H]2[C@@H]3[C@H](O)C[C@@H]4C[C@H](O)CC[C@]4(C)[C@H]3CC[C@]12C [CHENODIOL]
Key: > 50 µM

Exercise: I'd like to know its IC50. The compound in question is C[C@H](CCC(=O)O)[C@H]1CC[C@H]2[C@@H]3[C@@H](O)C[C@@H]4C[C@H](O)CC[C@]4(C)[C@H]3CC[C@]12C [URSODIOL]
Key: > 50 µM

Exercise: I'd like to know its IC50. The compound in question is C[C@H](CCC(=O)O)[C@H]1CC[C@H]2[C@@H]3[C@H](O)C[C@@H]4C[C@H](O)CC[C@]4(C)[C@H]3C[C@H](O)[C@]12C [CHOLIC ACID]
Key: > 50 µM

Exercise: I'd like to know its IC50. The compound in question is "C[C@H](CCC(=O)N1CCN(C/C=C/c2ccccc2)CC1)[C@H]1CC[C@H]2[C@@H]3[C@H](O)C[C@@H]4C[C@H](O)CC[C@]4(C)[C@H]3C[C@H](O)[C@]12C"
Key: > 50 µM

Exercise: I'd like to know its IC50. The compound in question is "C[C@H](CCC(=O)N1CCN(C/C=C/c2ccccc2)CC1)[C@H]1CC[C@H]2[C@@H]3[C@H](O)C[C@@H]4C[C@H](O)CC[C@]4(C)[C@H]3CC[C@]12C"
Key: 16.5 µM

Exercise: I'd like to know its IC50. The compound in question is "C[C@H](CCC(=O)NN1CCN(C)CC1)[C@H]1CC[C@H]2[C@@H]3[C@H](O)C[C@@H]4C[C@H](O)CC[C@]4(C)[C@H]3CC[C@]12C"
Key: ≥ 50 µM

Exercise: I'd like to know its IC50. The compound in question is "C[C@H](CCC(=O)N1CCN(C/C=C/c2ccccc2)CC1)[C@H]1CC[C@H]2[C@@H]3[C@@H](O)C[C@@H]4C[C@H](O)CC[C@]4(C)[C@H]3CC[C@]12C"
Key: 24.7 µM
